Numbers sourced from patent US10925971B2.

- target_under_test: T1, mouse PRLR on HEK293/mPRLR cells (Mus musculus, UniProt Q08501)
- T1 construct: HA; expressed in transfected cells; host or cells: HEK293
- T1 sequence (Q08501 20-608): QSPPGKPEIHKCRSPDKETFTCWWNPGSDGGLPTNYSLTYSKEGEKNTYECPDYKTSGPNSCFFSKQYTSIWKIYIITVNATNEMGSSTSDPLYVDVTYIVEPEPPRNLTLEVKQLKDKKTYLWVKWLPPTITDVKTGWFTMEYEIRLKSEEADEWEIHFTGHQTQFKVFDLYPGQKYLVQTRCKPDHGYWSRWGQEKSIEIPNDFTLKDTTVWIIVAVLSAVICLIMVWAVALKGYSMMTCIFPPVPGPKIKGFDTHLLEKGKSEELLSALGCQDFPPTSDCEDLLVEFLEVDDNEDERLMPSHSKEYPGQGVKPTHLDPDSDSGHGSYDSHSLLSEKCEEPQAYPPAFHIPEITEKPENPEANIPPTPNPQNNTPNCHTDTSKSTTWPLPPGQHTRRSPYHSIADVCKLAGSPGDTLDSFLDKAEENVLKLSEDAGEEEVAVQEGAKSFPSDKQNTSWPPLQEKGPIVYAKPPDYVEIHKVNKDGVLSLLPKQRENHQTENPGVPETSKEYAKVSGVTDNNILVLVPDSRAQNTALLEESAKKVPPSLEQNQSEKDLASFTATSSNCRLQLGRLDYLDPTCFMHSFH
- assay_overview: FACS cell surface binding
# FACS Cell Binding annotations
Unit Fold Above Background implied. Number only.

molecule	FACS Cell Binding, Fold Above Background
H1H6800P: fully human anti-PRLR antibody, human IgG1 Fc; HCVR/LCVR SEQ ID NOs 194/202 (antibody, V domains shown) VH: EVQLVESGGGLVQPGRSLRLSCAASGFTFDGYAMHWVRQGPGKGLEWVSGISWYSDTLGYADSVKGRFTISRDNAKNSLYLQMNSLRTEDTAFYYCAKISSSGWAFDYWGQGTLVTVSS VL: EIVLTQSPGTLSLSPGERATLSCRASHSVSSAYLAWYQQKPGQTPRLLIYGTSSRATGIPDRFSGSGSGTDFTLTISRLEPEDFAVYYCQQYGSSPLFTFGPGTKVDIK	1
H1H6762P: fully human anti-PRLR antibody, human IgG1 Fc; HCVR/LCVR SEQ ID NOs 2/10 (antibody, V domains shown) VH: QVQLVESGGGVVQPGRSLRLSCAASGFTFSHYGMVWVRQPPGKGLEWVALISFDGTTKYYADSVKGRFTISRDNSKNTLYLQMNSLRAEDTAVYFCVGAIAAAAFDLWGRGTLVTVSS VL: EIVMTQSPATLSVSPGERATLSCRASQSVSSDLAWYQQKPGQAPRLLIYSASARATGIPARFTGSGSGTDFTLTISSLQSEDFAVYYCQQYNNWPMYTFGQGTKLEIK	2
H1H6774P: fully human anti-PRLR antibody, human IgG1 Fc; HCVR/LCVR SEQ ID NOs 34/42 (antibody, V domains shown) VH: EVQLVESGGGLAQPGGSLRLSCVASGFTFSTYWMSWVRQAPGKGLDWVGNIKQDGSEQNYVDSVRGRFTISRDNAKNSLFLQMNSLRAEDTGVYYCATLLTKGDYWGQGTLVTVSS VL: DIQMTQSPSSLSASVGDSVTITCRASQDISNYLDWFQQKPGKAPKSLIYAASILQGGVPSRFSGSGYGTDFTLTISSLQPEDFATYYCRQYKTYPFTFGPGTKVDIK	1

Continue with the molecule presented below.
Field request: FACS Cell Binding | item: H1H6765P: fully human anti-PRLR antibody, human IgG1 Fc; HCVR/LCVR SEQ ID NOs 18/26 (antibody, V domains shown) VH: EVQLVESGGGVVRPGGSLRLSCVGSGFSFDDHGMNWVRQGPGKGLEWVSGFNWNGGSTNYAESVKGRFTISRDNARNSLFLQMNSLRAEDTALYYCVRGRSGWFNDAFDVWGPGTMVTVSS VL: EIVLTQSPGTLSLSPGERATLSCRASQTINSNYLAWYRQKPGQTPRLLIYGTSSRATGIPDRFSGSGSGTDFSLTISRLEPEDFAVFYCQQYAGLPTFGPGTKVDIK
1
